Test: tissue drug levels of free and liposomal vincristine (radioimmunoassay)
Assay type: in vivo, CD2 F1 mice
Conditions: mouse, kidney, iv, 1 mg/kg, kidney; 1.0 mg; 2h; read-out: vincristine level, kidney
metric: concentration at 2 h (ng/g)
Give the value, in units of ng/g, as a plain number.

Documented concentration at 2 h of CC[C@]1(O)C[C@H]2CN(CCc3c([nH]c4ccccc34)[C@@](C(=O)OC)(c3cc4c(cc3OC)N(C=O)[C@H]3[C@@](O)(C(=O)OC)[C@H](OC(C)=O)[C@]5(CC)C=CCN6CC[C@]43[C@@H]65)C2)C1 [free vincristine, vincristine] : 47

----------
Experiment: tissue drug levels of free and liposomal vincristine (radioimmunoassay)
Type: in vivo, CD2 F1 mice
Settings: mouse, brain, iv, 1 mg/kg, brain; 1.0 mg; 4h; read-out: vincristine level, brain
metric: concentration at 4 h
Answer shape: numeric part, then the unit.

Input CC[C@]1(O)C[C@H]2CN(CCc3c([nH]c4ccccc34)[C@@](C(=O)OC)(c3cc4c(cc3OC)N(C=O)[C@H]3[C@@](O)(C(=O)OC)[C@H](OC(C)=O)[C@]5(CC)C=CCN6CC[C@]43[C@@H]65)C2)C1 [free vincristine, vincristine] . Output concentration at 4 h: 29 ng/g

----------
Test: tissue drug levels of free and liposomal vincristine (radioimmunoassay)
Assay type: in vivo, CD2 F1 mice
Settings: mouse, spleen, iv, 1 mg/kg, spleen; 1.0 mg; 2h; read-out: vincristine level, spleen
metric: concentration at 2 h (ng/g)
The figure you give is taken to be in ng/g; do not add the unit.

Data point: CC[C@]1(O)C[C@H]2CN(CCc3c([nH]c4ccccc34)[C@@](C(=O)OC)(c3cc4c(cc3OC)N(C=O)[C@H]3[C@@](O)(C(=O)OC)[C@H](OC(C)=O)[C@]5(CC)C=CCN6CC[C@]43[C@@H]65)C2)C1 [free vincristine, vincristine] ; concentration at 2 h = 112

----------
Experiment: tissue drug levels of free and liposomal vincristine (radioimmunoassay)
Type: in vivo, CD2 F1 mice
Conditions: mouse, brain, iv, 1 mg/kg, brain; 1.0 mg; 1h; read-out: vincristine level, brain
metric: concentration at 1 h

For record CC[C@]1(O)C[C@H]2CN(CCc3c([nH]c4ccccc34)[C@@](C(=O)OC)(c3cc4c(cc3OC)N(C=O)[C@H]3[C@@](O)(C(=O)OC)[C@H](OC(C)=O)[C@]5(CC)C=CCN6CC[C@]43[C@@H]65)C2)C1 [free vincristine, vincristine] the listed concentration at 1 h is 21 ng/g

----------
Test: tissue drug levels of free and liposomal vincristine (radioimmunoassay)
Type: in vivo, CD2 F1 mice
Conditions: mouse, liver, iv, 1 mg/kg, liver; 1.0 mg; 1h; read-out: vincristine level, liver
metric: concentration at 1 h (ng/g)
Express the result in ng/g but write the number alone.

The compound identified as CC[C@]1(O)C[C@H]2CN(CCc3c([nH]c4ccccc34)[C@@](C(=O)OC)(c3cc4c(cc3OC)N(C=O)[C@H]3[C@@](O)(C(=O)OC)[C@H](OC(C)=O)[C@]5(CC)C=CCN6CC[C@]43[C@@H]65)C2)C1 [free vincristine, vincristine] registered its concentration at 1 h at 84

----------
Experiment: tissue drug levels of free and liposomal vincristine (radioimmunoassay)
Format: in vivo, CD2 F1 mice
Conditions: mouse, liver, iv, 1 mg/kg, liver; 1.0 mg; 2h; read-out: vincristine level, liver
metric: concentration at 2 h (ng/g)
The response must be a number in ng/g with no trailing unit.

Per the records, this molecule ( CC[C@]1(O)C[C@H]2CN(CCc3c([nH]c4ccccc34)[C@@](C(=O)OC)(c3cc4c(cc3OC)N(C=O)[C@H]3[C@@](O)(C(=O)OC)[C@H](OC(C)=O)[C@]5(CC)C=CCN6CC[C@]43[C@@H]65)C2)C1 [free vincristine, vincristine] ) has concentration at 2 h equal to 47

Just for reference, patent US4952408A is where these values come from.
